biological target: L-lactate dehydrogenase (Plasmodium falciparum (isolate CDC / Honduras)) (UniProt Q27743); assay: PfLDH activity inhibition – cell lysate, 3D7 strain, counter-screen for P. falciparum growth inhibition project (AID 2304);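 note: 0% = vehicle and 100% = reference inhibitor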; details: P. falciparum 3D7 crude extract, LDH APAD/NBT absorbance; at 2 µM; hits give high values
Sequence (Q27743 whole entry, looked up): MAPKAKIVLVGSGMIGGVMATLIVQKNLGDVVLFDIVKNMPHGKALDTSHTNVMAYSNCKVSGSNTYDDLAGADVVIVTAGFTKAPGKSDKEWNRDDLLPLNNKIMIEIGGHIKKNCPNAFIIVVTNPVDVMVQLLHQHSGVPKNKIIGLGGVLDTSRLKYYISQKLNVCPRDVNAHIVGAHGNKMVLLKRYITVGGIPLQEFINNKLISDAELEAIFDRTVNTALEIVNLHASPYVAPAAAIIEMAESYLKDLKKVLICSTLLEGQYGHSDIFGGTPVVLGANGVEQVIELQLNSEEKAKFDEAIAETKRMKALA
Property: inhibition; scope: individual compounds
measurement-type: inhibition (%)

• COc1ccc(N2C(N)=NC(N)=NC2(C)C)cc1OC = -2
• Cc1nc2nc(N)nc(N)c2c(C)c1Cc1ccccc1 = 3
• FC(F)(F)c1ccc(/C=C/c2cncnc2Nc2ccc3nc(Cc4ccccc4)[nH]c3c2)cc1 = 1
• O=C(c1ccco1)c1cn(CCOc2ccccc2)c2ccccc12 = -4
• CC(Cl)=CCc1c(C)[nH]c2c(ccc3ccccc32)c1=O = 8
• Cn1cc(C(=O)Nc2cccc(-c3cccc(-c4nc5ccccc5[nH]4)c3)c2)n(C)c1=O = -6
• c1ccc2sc(Sc3ncnc4sccc34)nc2c1 = 2
• Nc1oc2c(CN3CCCCCC3)c(O)ccc2c(=O)c1-c1nc2ccccc2s1 = 4
• O=C(Nc1cccc(CN2CCN(Cc3ccc(O)cc3)CC2)c1)c1ccc(-c2ccccc2)cc1 = 1
• CCOc1ccc(C(=O)Nc2ccc(-c3nc4ccccc4[nH]3)cc2)cc1[N+](=O)[O-] = 4
• CCc1c(C)c2ccc3c(c2oc1=O)CN(CCc1ccc(F)cc1)CO3 = -2
• CC(C)(C)c1ccc(NC(=O)c2ccc(CN3CCCN(Cc4ccsc4)CC3)cc2)cc1 = -7
• c1ccc(CN2CCC(NCc3ccc(-c4ccc(CNCc5cccnc5)cn4)cc3)CC2)cc1 = -5
• Cc1cccc2[nH]c(-c3ccc(-c4ccc(CNCC5CCCO5)cc4)cc3)nc12 (stereo not drawn) = -4
• CN1CCN(CC(=O)Nc2cccc(-c3ccc(-c4nc5ccc(F)cc5[nH]4)s3)c2)CC1 = -4
• O=C(Nc1nc2cc(S(=O)(=O)NCc3ccc(Cl)c(Cl)c3)ccc2n1CCCN1CCCC1)c1ccc(Cl)cc1 = -1
• COc1ccc(O)c(C(=O)c2cc(C(=O)NCCc3ccccc3)c(=O)n(CCc3ccccc3)c2)c1 = -2
• Cc1ccccc1C1CCN(C2CCC(NC(=O)/C=C/c3ccccc3C(F)(F)F)CC2)CC1 (stereo not drawn) = -1
• CC(C)N(Cc1cnc(N)c(C#N)n1)c1ccc(Cl)c(Cl)c1 = -5
• Cc1cccc(NC(=O)N(Cc2cc3cc(C)cc(C)c3[nH]c2=O)C2CC2)c1 = 2
• C[C@H](Cc1ccc(OCCCOc2ccc(C[C@@H](C)NC[C@H](O)c3cccc(Cl)c3)cc2)cc1)NC[C@H](O)c1cccc(Cl)c1 = 0
• Cc1ccc(NC(=O)N2CCCN(CCCCCNC(=O)/C=C/c3ccc(Cl)c(Cl)c3)CC2)cc1 = -6
• Cc1ccc(CON2C(N)=NC(N)=NC2(C)C)c(Cl)c1 (tested in a mixture with another compound) = 0
• CCN(CC)CCN(Cc1ccc(-c2ccc(C(F)(F)F)cc2)cc1)C(=O)Cn1c(CCc2cccc(F)c2F)nc(=O)c2sccc21 = 6
• CCNc1cc(C(=O)N[C@@H](Cc2ccccc2)[C@H](O)CN[C@@H](C)c2cccc(OC)c2)cc(N2CCCC2=O)c1 = -1
• O=C(CN1CCC(NCc2cnc(-c3ccc(Cl)cc3)[nH]2)CC1)N1CCc2ccccc21 = -8
• c1cc(C2=N[C@H]3CCCC[C@@H]3N2)ccc1OCCCCCOc1ccc(C2=N[C@@H]3CCCC[C@H]3N2)cc1 = -5
• Cc1c(NC(=O)COc2ccc(Cl)cc2C(=O)c2cc(F)cc(C(F)(F)F)c2)ccc2ncsc12 = -2
• COc1ccccc1CCNc1nc(C)cc(N[C@@H](CC(C)C)C(=O)Nc2ccccc2)n1 = -2
• COc1ccc2nccc(N3CCC(O)(CCNCc4ccc5c(n4)NC(=O)CO5)CC3)c2n1 = -4
• Cc1cccc(Nc2c(-c3cc(Br)ccc3O)nc3ncccn23)c1 = 1
• Cc1cc(-c2ccc3c(c2)CCN(CCC2CCC(NC(=O)/C=C/c4ccccc4F)CC2)CC3)on1 (stereo not drawn) = -4
• CCn1ccc2c(N3CCCCS3(=O)=O)cc(C(=O)N[C@@H](Cc3ccccc3)[C@H](O)CNC3CCCCC3)cc21 = 1
• NC(N)=NN=CC(=O)Nc1ccc(Cl)cc1 = -1
• COc1ccc(-c2ccc(S(=O)(=O)Nc3cc4c(cc3OC(C)C)CCNCC4)cc2)cc1 = 3
• O=C(Cc1ccccc1)NC(c1ccccc1)c1ccc2cccnc2c1O (stereo not drawn) = 3
• COC(=O)c1ccc(OCC(O)CO)cc1O (stereo not drawn) = 5
• N#Cc1cccc(-c2ccc(C(=O)Nc3ccc4c(c3)CCN(C3CCC3)CC4)cn2)c1 = -2

====

assay: antimalarial activity against Dd2 strain (AID 2302);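 note: 0% = DMSO untreated growth and 100% = chloroquine plus artemisinin killed control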; conditions: P. falciparum Dd2 in RBCs, LDH growth readout, 72 h; at 2 µM; hits give high values
measurement-type: growth inhibition (%)

- COC(=O)COc1cc(C(=O)NCCCCN2CCC(c3ccc4c(c3OC)CCCC4)CC2)ccc1-c1ccc(Cl)cc1: 21
- Cc1c(CNCCCNc2nc3ccncc3[nH]2)sc(Br)c1Br: 1
- FC(F)(F)c1ccc(CNC2CCN(CC3CCCCC3)CC2)cc1: 5
- CC(O)C1CCCCN1C(=O)c1ccc(-c2ccc(-c3nc4ccccc4[nH]3)s2)cc1 (centres undefined): 98
- Cc1nnc(-c2ccc3ccccc3c2)c2cn(-c3cccc([N+](=O)[O-])c3)nc12: 67
- Cc1cccc2[nH]c(-c3ccc(-c4ccc(CNCc5cnn(-c6ccccc6)n5)cc4)s3)nc12: 48
- c1ccc(CNCc2ccc(-c3cccc(-c4nc5ccccc5[nH]4)c3)cc2)cc1: 78
- FC(F)(F)c1ccc2nc(-c3ccc(-c4cccc(CN5CCN(c6ccncc6)CC5)c4)cc3)[nH]c2c1: 99
- COc1ccc2ncc(F)c(CCN3CCC[C@H](CNCc4ccc5c(n4)NC(=O)CS5)C3)c2n1: 34
- O=c1cc(NCCCNCc2cc3c(Cl)cccc3s2)[nH]c2ccccc12: 57
- COc1cc(NC(=O)/C=C/c2ccccc2OC(F)(F)F)cc(OCCN2CCCCC2)c1: 6
- O=C(CCCCCNC(=O)c1ccc(O)c(-c2ccc(Cl)c(Cl)c2)c1)NC1CCCCCC1: 3
- Cc1ccc(Nc2nc3cc(N(C)c4ccnc(Nc5cccc(CS(C)(=O)=O)c5)n4)ccc3o2)cc1: 16
- COc1cc(CNc2ncc(-c3ccsc3)c(-c3nccs3)n2)cc(OC)c1: 82
- CC[C@]1(C)C[C@@H](NC(=O)NC(=O)c2ccc(OC)cc2)[C@]2(C)[C@H](C)CC[C@]3(CCC(=O)[C@H]32)[C@@H](C)[C@@H]1OC(=O)NC(=O)c1ccc(OC)cc1: 98
- Cc1cc(N[C@@H](Cc2ccccc2)C(=O)NCCc2ccccc2)nc(NCCc2ccccc2)n1: 57
- O=C(Nc1ccc(OC2CCN(Cc3ccc(F)cc3)C2)c(Cl)c1)c1ccsc1 (centres undefined): 95
- CCC(Cc1cnc2nc(N)nc(N)c2n1)c1ccc(C(=O)N[C@@H](CCC(=O)O)C(=O)O)cc1 (some centres undefined): 98
- O=c1cc(NCCCCNCc2cccc(Br)c2)[nH]c2ccccc12: 19

====

assay: inhibition of 3D7 malaria parasite growth – strain 3D7 (AID 2306);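 note: 0% = DMSO wells and 100% = chloroquine plus artemisinin control wells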; conditions: P. falciparum 3D7 erythrocytic growth, LDH absorbance, 72 h; at 2 µM; hits give high values
measurement-type: growth inhibition (%)

- COc1cccc(C(=O)NCc2n[nH]c(=S)n2-c2ccc(Cl)c(Cl)c2)c1: 102
- CC(C)(C)C1CCC(CC2=C(C(=O)O)c3ccccc3C2=O)CC1 (stereo not given): 91
- COc1ccc(OCC(=O)Nc2nc(-c3ccc(OC)cc3)c(C)s2)cc1: 100
- O=C(NCCCCN1CCN(c2cccc3c2OCCO3)CC1)c1ccc(NC(=O)c2cc(Cl)cc(Cl)c2)cc1: 101
- CC1(C)N=C(N)N=C(N)N1OCc1ccc2c(c1)OCO2: 93

====

molecular target: L-lactate dehydrogenase (Plasmodium falciparum (isolate CDC / Honduras)) (UniProt Q27743); test: PfLDH activity inhibition – cell lysate, 3D7 strain, counter-screen for P. falciparum growth inhibition project (AID 2304);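 note: 0% = vehicle and 100% = reference inhibitor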; conditions: P. falciparum 3D7 crude extract, LDH APAD/NBT absorbance; at 2 µM; hits give high values
measurement-type: inhibition (%)

- O=C(/C=C/c1ccc(Cl)c(Cl)c1)NCCCCCN1CCC(c2c[nH]c3cc(O)ccc23)CC1: 3
- O=C(Nc1ccccc1)N(Cc1ccc(-c2ccc(CNCc3ccc4c(c3)OCO4)cc2)cc1)C1CCN(Cc2ccccc2)CC1: -1
- O=C(Nc1ccc(C(F)(F)F)cc1)NC1CCN(c2ccnc3ccccc23)C1 (stereo not drawn): 0
- Cn1nc(-c2cccc(CN[C@@H]3CCc4ccc(O)cc43)c2)c2cnc(NC3CCCC3)nc21: -2
- NC1CCN(c2nc(NCCCc3ccc(O)cc3)nc(NCc3ccccc3-c3ccc(C(F)(F)F)cc3)n2)CC1: 1
- CN1CCN(c2ccnc3ccc(NC(=O)Nc4ccc(-c5ccccc5)cc4)cc23)CC1: -7
- O=C(CSc1nc2ccccc2c(=O)n1CC1CCCO1)Nc1cc(C(F)(F)F)ccc1Cl (stereo not drawn): -2
- CS(=O)(=O)Nc1ccc(-c2ccc3ccnc(N)c3c2)cc1: -3
- Cc1cnc(Nc2cccc(CCN3CCOCC3)c2)nc1NC(C)C: 1
- Cc1cnc(C(=O)Nc2cccc(-c3cccc(-c4nc5c(C)cccc5[nH]4)c3)c2)cn1: -1
- COCCN1CCC(N(CC2(O)CCN(c3ccc(C(F)(F)F)cc3)CC2)C(=O)Cn2c(SCc3cccc(F)c3F)cc(=O)c3ccccc32)CC1: 5
- CC(C)Cc1nc(N)nc(N)c1-c1ccc(Cl)cc1: 6
- CCOc1ccc2c(c1)N(C(=O)C=Cc1ccccc1)C(C)(C)c1ssc(=S)c1-2: -1
- C#CCN(Cc1ccc2nc(N)[nH]c(=O)c2c1)c1ccc(C(=O)N[C@@H](CCC(=O)O)C(=O)O)cc1: 3
- CCCCCn1c(Sc2ccc(C#N)c([N+](=O)[O-])c2)nnc1-c1cccc(Cl)c1: -2
- CN1CCC(NCc2cccc(-c3ccc(S(=O)(=O)NCc4ccccc4)c(F)c3)c2)CC1: -8
- CCOc1ccc2c(NN=Cc3cccc(OC)c3OC)cc(C)nc2c1: 3
- O=S(=O)(NCCN1CCCC1)c1cccc(-c2cccc(CNCc3ccccc3)c2)c1: -7
- CCCCCCN1CCN(Cc2cccc(NC(=O)c3cccc(OCC)c3)c2)CC1: 0
- COc1cc2c(cc1S(=O)(=O)c1ccc(NC(=O)c3ccc4ccccc4c3)cc1)CCN(C)CC2: -4
- Cc1c(S(=O)(=O)Nc2ccc3ccn(CCN(C)C)c3c2)sc2ccc(Cl)cc12: 0
- c1cc(CNCCN2CCNCC2)cc(-c2cccc(-c3nc4ccccc4[nH]3)c2)c1: -3
- Oc1ccc(CCNc2nc(N/N=C/C=C/c3ccc(Cl)cc3)nc(N3CCNCC3)n2)cc1: 2
- CC(C)(C)c1ccc(S(=O)(=O)Nc2ccccc2Cn2nc(N3CCNCC3)ccc2=O)cc1: 2
- COc1ccc2nccc([C@H](O)CN3CCC(NCc4cc(C)c5c(c4)OCCO5)CC3)c2n1: 3
- CC(=O)c1cccc(NC(=O)C2c3ccccc3C(=O)N(CC(C)C)C2c2cccs2)c1 (stereo not drawn): -2
- O=C(Nc1cccc(CN2CCCN(CC3CC3)CC2)c1)c1ccc(Cl)c(Cl)c1: 4
- CCN(CC)CCN(Cc1ccc(-c2ccc(Cl)cc2)cc1)C(=O)Cn1cc(CN(C)C)c(=O)nc1SCc1ccc(F)cc1: 1
- OCC1CCN(Cc2cccc(-c3ccc(-c4nc5ccc(F)cc5[nH]4)cc3)c2)CC1: 4
- O=C(Nc1cccc(-c2cccc(-c3nc4ccc(F)cc4[nH]3)c2)c1)c1ccncc1: -3
- CC(C)[C@H](NC(=O)c1ccc(O)c(-c2ccc(Cl)c(Cl)c2)c1)C(=O)NC1CCCCCC1: -2
- Cc1cccc2[nH]c(-c3ccc(-c4ccc(CN5CCN(CC6CCCN(C)C6)CC5)cc4)s3)nc12 (stereo not drawn): -3
- CCOc1cc2ncnc(Nc3cc(Cl)c(Cl)c(Cl)c3)c2cc1OCC: -3
- COc1ccccc1C1CCN(Cc2csc(NC(=O)c3ccc(-c4ccc(C(F)(F)F)cc4)cc3)n2)CC1: -2
- COc1ccc2ncc(F)c(CCN3C[C@H](CNCc4ccc5c(n4)NC(=O)CS5)[C@H](O)C3)c2c1: -3
- CNC(=O)COC(=O)c1c2c(nc3ccccc13)C(=Cc1ccc3c(c1)OCO3)CCC2: -2
- Cc1ccc2nc(C)cc(NN=CC=Cc3ccccc3)c2c1: 4
- COc1ccc2c(NN=CC=Cc3ccccc3)cc(C)nc2c1: 2
